All values here come from patent US11014911B2.

Biological target: GSK3β (H350L) (Homo sapiens (Human))
Sequence (P49841 whole entry, stated change not applied): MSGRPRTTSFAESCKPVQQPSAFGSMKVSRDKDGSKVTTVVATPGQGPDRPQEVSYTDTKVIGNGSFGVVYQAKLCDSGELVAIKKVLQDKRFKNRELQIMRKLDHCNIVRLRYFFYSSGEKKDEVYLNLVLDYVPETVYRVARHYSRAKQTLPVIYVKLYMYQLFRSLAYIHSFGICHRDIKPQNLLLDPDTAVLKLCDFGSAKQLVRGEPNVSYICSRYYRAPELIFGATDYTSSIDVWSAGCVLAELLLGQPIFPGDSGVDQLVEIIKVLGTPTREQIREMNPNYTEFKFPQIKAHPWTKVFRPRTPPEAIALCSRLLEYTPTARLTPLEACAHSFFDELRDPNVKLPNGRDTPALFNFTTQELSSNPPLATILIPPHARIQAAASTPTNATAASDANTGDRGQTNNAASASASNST
Details: read-out: GSK3β Ki
pKi: −log10 of the molar value.
parameterMeasured: pKi

Worked cases, answers included:
compound: Cc1cc(CC(=O)Nc2cc([C@H]3CC[C@@H](OC(=O)N(C)C(C)C)C3)[nH]n2)on1 [Example 289]
pKi: 7.97

compound: CC1(C)CCN1C(=O)O[C@@H]1CC[C@H](c2cc(NC(=O)Cc3ccccc3S(C)(=O)=O)n[nH]2)C1 [Example 142]
pKi: 7.75

compound: CCCNC(=O)O[C@H]1CC[C@@H](c2cc(NC(=O)c3ccnn3C)n[nH]2)C1 [Example 163]
pKi: 7.78

compound: CCCNC(=O)O[C@@H]1CC[C@H](c2cc(NC(=O)Cc3cc(C)no3)n[nH]2)C1 [Example 178]
pKi: 7.67

compound: CC[C@@H](C)NC(=O)O[C@H]1CC[C@@H](c2cc(NC(=O)Cc3ccno3)n[nH]2)C1 [Example 29]
pKi: 7.70

compound: C[C@H]1CCCN1C(=O)O[C@@H]1CC[C@H](c2cc(NC(=O)Cc3ccn(C)n3)n[nH]2)C1 [Example 140]
pKi: 7.82

compound: CCNC(=O)O[C@@H]1CC[C@H](c2cc(NC(=O)Cc3ccnc(OC)c3)n[nH]2)C1 [Example 232]
pKi: 7.47

compound: Cc1coc(CC(=O)Nc2cc([C@H]3CC[C@@H](OC(=O)N[C@@H](C)CC(F)(F)F)C3)[nH]n2)n1 [Example 93]
pKi: 8.12

compound: CCCNC(=O)O[C@H]1CC[C@@H](c2cc(NC(=O)c3ccc(OC)nc3)n[nH]2)C1 [Example 182]
pKi: 7.04

compound: CC[C@H](C)NC(=O)O[C@@H]1CC[C@H](c2cc(NC(=O)c3ccnc4ncsc34)n[nH]2)C1 [Example 43]
pKi: 7.34

[A] C[C@]1(O)CC[C@@H](NC(=O)O[C@H]2CC[C@@H](c3cc(NC(=O)Cc4ccccc4)n[nH]3)C2)CC1 [Example 558]
[B] O=C(Cc1ccno1)Nc1cc([C@H]2CC[C@@H](OC(=O)NC3CCCC3)C2)[nH]n1 [Example 460]
[C] CC[C@H](C)NC(=O)O[C@@H]1CC[C@H](c2cc(NC(=O)Cc3ccccc3S(=O)(=O)CC)n[nH]2)C1 [Example 40]
[D] C[C@H]1CCCN1C(=O)O[C@@H]1CC[C@H](c2cc(NC(=O)Cc3cnco3)n[nH]2)C1 [Example 629]
Asked: Hi! Can you put these in order of pKi, lowest number first? Provide your answer as the labels ordered per the instruction.
Given back: C, B, A, D
(C: 7.19, B: 7.40, A: 7.73, D: 7.98)
